assay: Compound stability in human liver microsomes
Format: in vitro ADME
conditions: human liver microsomes 0.5 mg protein/mL, compound 5 μM, NADPH 1.0 mM, 37° C.
Reported half-life at 5 μM values follow for various compounds
metric-name: half-life at 5 μM (min)

1) CC[C@H](Nc1ncnc(N)c1-c1nnn(C)n1)c1nc2cccc(Cl)c2c(=O)n1-c1cccc(F)c1 [Ex. 36]: 14.3
2) CC[C@H](Nc1ncnc(N)c1-c1noc(C)n1)c1nc2cccc(F)c2c(=O)n1C1CC1 [Ex. 16]: 22.9
3) CC[C@@H](Nc1ncnc(N)c1-c1ccon1)c1nc2cccc(Cl)c2c(=O)n1C1CC1 [Ex. 49]: 43.8
4) Cc1noc(-c2c(N)ncnc2N[C@@H](C)c2nc3cccc(Cl)c3c(=O)n2C2CC2)n1 [Ex. 41]: 41
5) CC[C@H](Nc1ncnc(N)c1-c1nnc(C)o1)c1nc2cccc(F)c2c(=O)n1-c1ccccc1 [Ex. 40]: 28
6) CC(C)c1noc(-c2c(N)ncnc2N[C@@H](C)c2nc3cccc(Cl)c3c(=O)n2C2CC2)n1 [Ex. 57]: 18.2
7) CC[C@H](Nc1ncnc(N)c1-c1nc(C)no1)c1nc2cccc(C)c2c(=O)n1-c1ccccc1 [Ex. 37]: 5.3
8) CC[C@H](Nc1ncnc(N)c1-c1noc(C)n1)c1nc2cccc(Cl)c2c(=O)n1-c1ccccc1 [Ex. 13]: 44.7
9) Cc1nnc(-c2c(N)ncnc2N[C@@H](C)c2nc3cccc(Cl)c3c(=O)n2-c2ccccc2)o1 [Ex. 64]: 55.8
10) CC[C@H](Nc1ncnc(N)c1-c1ncn(C)n1)c1nc2cccc(Cl)c2c(=O)n1C1CC1 [Ex. 53]: 28
11) CC[C@H](Nc1ncnc(N)c1-c1ncc(C)o1)c1nc2cccc(Cl)c2c(=O)n1C1CC1 [Ex. 7]: 19.4
12) CC[C@H](Nc1ncnc(N)c1-c1nnc(C)o1)c1nc2cccc(Cl)c2c(=O)n1-c1cccc(F)c1 [Ex. 34]: 29.8
13) CC[C@H](Nc1ncnc(N)c1-c1nc(C)no1)c1nc2cccc(F)c2c(=O)n1C1CC1 [Ex. 23]: 44.3
14) CC[C@H](Nc1ncnc(N)c1-c1ccn(C)n1)c1nc2cccc(Cl)c2c(=O)n1C1CC1 [Ex. 51]: 22.6
15) CC[C@H](Nc1ncnc(N)c1-c1nnc(C)o1)c1nc2cccc(C)c2c(=O)n1-c1ccccc1 [Ex. 38]: 16
16) CCc1noc(-c2c(N)ncnc2N[C@@H](CC)c2nc3cccc(Cl)c3c(=O)n2C2CC2)n1 [Ex. 56]: 20

###

assay: Pharmacokinetics after intravenous and oral administration in rats
Format: in vivo, rat
conditions: rat, plasma, iv dosing, dose 1 mg/kg
metric-name: half-life (h)

1) CC[C@H](Nc1ncnc(N)c1C1=N[C@@H](C)CO1)c1nc2cccc(Cl)c2c(=O)n1C1CC1: 1.52
2) CC[C@H](Nc1ncnc(N)c1-c1ncc(C)o1)c1nc2cccc(C)c2c(=O)n1-c1ccccc1C: 4.41
3) CC[C@H](Nc1ncnc(N)c1C1=N[C@@H](C)CO1)c1nc2cccc(Cl)c2c(=O)n1-c1ccccc1: 1.15
4) CC(C)c1noc(-c2c(N)ncnc2N[C@@H](C)c2nc3cccc(Cl)c3c(=O)n2C2CC2)n1: 0.99
5) CC[C@H](Nc1ncnc(N)c1-c1nc(C)no1)c1nc2cccc(C)c2c(=O)n1-c1ccccc1: 1.34
6) CC[C@H](Nc1ncnc(N)c1-c1ccon1)c1nc2cccc(C)c2c(=O)n1C1CC1: 0.94

###

assay: Pharmacokinetics after intravenous and oral administration in rats
Format: in vivo, rat
conditions: rat, plasma, iv dosing, dose 1 mg/kg, read-out: Vss
metric-name: Vd

1) CC[C@H](Nc1ncnc(N)c1-c1nnc(C)o1)c1nc2cccc(C)c2c(=O)n1-c1ccccc1: 3.05 L/kg
2) CC[C@H](Nc1ncnc(N)c1-c1nc(C(N)=O)n(C)n1)c1nc2cccc(Cl)c2c(=O)n1C1CC1: 5.03 L/kg
3) CC[C@H](Nc1ncnc(N)c1-c1nnc(C)o1)c1nc2cccc(C)c2c(=O)n1-c1ccccc1C: 3.42 L/kg
4) CC(C)c1noc(-c2c(N)ncnc2N[C@@H](C)c2nc3cccc(Cl)c3c(=O)n2C2CC2)n1: 5.84 L/kg
5) CC[C@H](Nc1ncnc(N)c1-c1noc(C)n1)c1nc2cccc(Cl)c2c(=O)n1-c1ccccc1: 6.92 L/kg
6) CC[C@H](Nc1ncnc(N)c1-c1nnc(C)o1)c1nc2cccc(Cl)c2c(=O)n1C1CC1: 3.93 L/kg

###

Reported CLint scaled at 5 μM values follow for various molecules
assay: Compound stability in human liver microsomes
Assay type: in vitro ADME
conditions: human liver microsomes; in vivo CLint extrapolated
metric-name: CLint scaled at 5 μM (mL/min/kg)

1. CC[C@H](Nc1ncnc(N)c1-c1nnc(C)o1)c1nc2ccccc2c(=O)n1-c1ccccc1F: 146
2. CC[C@H](Nc1ncnc(N)c1C1=N[C@@H](C)CO1)c1nc2cccc(Cl)c2c(=O)n1C1CC1: 315
3. CC[C@H](Nc1ncnc(N)c1-c1nc(C)no1)c1nc2cccc(C)c2c(=O)n1-c1ccccc1C: 167
4. CC[C@H](Nc1ncnc(N)c1-c1noc(C)n1)c1nc2ccccc2c(=O)n1-c1ccccc1F: 227
5. CC[C@H](Nc1ncnc(N)c1-c1nnn(C)n1)c1nc2cccc(Cl)c2c(=O)n1C1CC1: 40.6
6. CC[C@H](Nc1ncnc(N)c1-c1nc(C)no1)c1nc2cccc(Cl)c2c(=O)n1C1CC1: 38.2
7. CC[C@H](Nc1ncnc(N)c1-c1nnc(C)o1)c1nc2cccc(F)c2c(=O)n1-c1ccccc1: 62.1
8. CC[C@H](Nc1ncnc(N)c1-c1ncc(C)o1)c1nc2cccc(C)c2c(=O)n1-c1ccccc1C: 286

###

assay: Pharmacokinetics after intravenous and oral administration in rats
Type: in vivo, rat
conditions: rat, plasma, iv dosing, dose 1 mg/kg, read-out: Vss
Reported Vd values follow for various compounds
metric-name: Vd (L/kg)

1. CC[C@H](Nc1ncnc(N)c1-c1ccn(C)n1)c1nc2cccc(Cl)c2c(=O)n1C1CC1: 1.64
2. CC[C@H](Nc1ncnc(N)c1-c1nc(C)no1)c1nc2cccc(C)c2c(=O)n1C1CC1: 6.24
3. CCc1nc(-c2c(N)ncnc2N[C@@H](C)c2nc3cccc(Cl)c3c(=O)n2C2CC2)no1: 7.07
4. CC[C@H](Nc1ncnc(N)c1C1=N[C@@H](C)CO1)c1nc2cccc(Cl)c2c(=O)n1C1CC1: 11.9
5. Cc1nnc(-c2c(N)ncnc2N[C@@H](C)c2nc3cccc(Cl)c3c(=O)n2-c2ccccc2)o1: 1.69
6. CC[C@H](Nc1ncnc(N)c1-c1nc(C)no1)c1nc2cccc(Cl)c2c(=O)n1[C@@H]1C[C@@H]1F: 6.11
7. CC[C@H](Nc1ncnc(N)c1-c1noc(C)n1)c1nc2cccc(C)c2c(=O)n1-c1ccccc1C: 7.41
8. CC[C@@H](Nc1ncnc(N)c1-c1ccon1)c1nc2cccc(Cl)c2c(=O)n1C1CC1: 4.1

###

subject-of-test: PI3K (p120γ) (h) (Homo sapiens (Human), UniProt P48736)
Sequence (P48736 whole entry): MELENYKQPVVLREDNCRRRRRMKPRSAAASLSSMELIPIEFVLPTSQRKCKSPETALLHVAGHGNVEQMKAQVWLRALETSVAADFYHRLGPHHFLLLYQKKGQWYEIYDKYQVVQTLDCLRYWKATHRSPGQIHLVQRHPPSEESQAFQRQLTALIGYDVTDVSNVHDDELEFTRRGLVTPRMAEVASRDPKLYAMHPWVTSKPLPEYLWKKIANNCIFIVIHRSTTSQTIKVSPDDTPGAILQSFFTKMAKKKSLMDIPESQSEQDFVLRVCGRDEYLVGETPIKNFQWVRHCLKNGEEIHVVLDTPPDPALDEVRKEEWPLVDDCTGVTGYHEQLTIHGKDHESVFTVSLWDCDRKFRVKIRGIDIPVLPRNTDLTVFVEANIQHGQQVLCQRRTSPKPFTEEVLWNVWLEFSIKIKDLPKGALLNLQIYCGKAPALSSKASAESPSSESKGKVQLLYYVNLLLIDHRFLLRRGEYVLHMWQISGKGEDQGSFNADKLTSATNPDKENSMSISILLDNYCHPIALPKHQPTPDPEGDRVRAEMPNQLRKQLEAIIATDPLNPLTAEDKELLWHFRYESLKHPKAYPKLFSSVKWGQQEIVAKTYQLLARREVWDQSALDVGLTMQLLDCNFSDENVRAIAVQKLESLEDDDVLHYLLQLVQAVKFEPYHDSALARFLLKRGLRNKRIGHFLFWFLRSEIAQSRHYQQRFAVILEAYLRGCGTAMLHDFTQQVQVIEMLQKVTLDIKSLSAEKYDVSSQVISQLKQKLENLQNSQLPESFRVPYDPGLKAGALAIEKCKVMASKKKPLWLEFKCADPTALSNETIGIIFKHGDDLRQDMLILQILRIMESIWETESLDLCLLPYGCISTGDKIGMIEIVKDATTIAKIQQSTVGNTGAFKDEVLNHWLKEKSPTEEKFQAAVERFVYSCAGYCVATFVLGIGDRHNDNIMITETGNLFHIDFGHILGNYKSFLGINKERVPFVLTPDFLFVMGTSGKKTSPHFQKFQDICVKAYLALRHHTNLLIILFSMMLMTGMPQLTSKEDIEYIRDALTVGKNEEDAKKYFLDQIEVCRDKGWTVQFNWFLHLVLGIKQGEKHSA
assay: PI3K (p120γ) (h) non-radioactive HTRF kinase assay
Format: biochemical
pIC50: −log10 of the molar value.
Reported pIC50 values follow for various compounds
metric-name: pIC50

1. CC[C@H](Nc1ncnc(N)c1-c1nnc(C)o1)c1nc2cccc(Cl)c2c(=O)n1-c1ccccc1: 6.42
2. CC[C@H](Nc1ncnc(N)c1-c1nc(C)no1)c1nc2cccc(F)c2c(=O)n1-c1ccccc1: 6.05
3. Cc1noc(-c2c(N)ncnc2N[C@@H](C)c2nc3cccc(Cl)c3c(=O)n2-c2ccccc2)n1: 7.43
4. Cc1noc(-c2c(N)ncnc2N[C@@H](C)c2nc3cccc(Cl)c3c(=O)n2C2CC2)n1: 6.58

###

assay: Compound stability in rat liver microsomes
Type: in vitro ADME
conditions: pH 7.4; rat liver microsomes 0.5 mg protein/mL, compound 5 μM, NADPH 1.0 mM, 37° C.
Could you please mark YES for values of half-life at 5 μM below 60 min and NO for values at or above it?

1. CC[C@H](Nc1ncnc(N)c1-c1nnn(C)n1)c1nc2cccc(Cl)c2c(=O)n1C1CC1: NO
2. CC[C@H](Nc1ncnc(N)c1-c1nc(C)no1)c1nc2cccc(Cl)c2c(=O)n1-c1ccccc1: YES
3. CC[C@H](Nc1ncnc(N)c1-c1ccn(C)n1)c1nc2cccc(Cl)c2c(=O)n1C1CC1: YES
4. C[C@H](Nc1ncnc(N)c1-c1ncn(C)n1)c1nc2cccc(Cl)c2c(=O)n1C1CC1: YES
5. CC[C@H](Nc1ncnc(N)c1-c1ncn(C)n1)c1nc2cccc(F)c2c(=O)n1C1CC1: NO
6. CC[C@H](Nc1ncnc(N)c1-c1nc(C)no1)c1nc2cccc(F)c2c(=O)n1C1CC1: YES

###

assay: Pharmacokinetics after intravenous and oral administration in mice
Format: in vivo
conditions: plasma; Mouse, iv dose 1 mg/kg; oral dose generally 5 or 10 mg/kg
metric-name: bioavailability

1) Cc1nnc(-c2c(N)ncnc2N[C@@H](C)c2nc3cccc(Cl)c3c(=O)n2-c2ccccc2)o1 [Ex. 64]: 78.7%
2) CC[C@H](Nc1ncnc(N)c1-c1nc(C)no1)c1nc2cccc(Cl)c2c(=O)n1C1CC1 [Ex. 4]: 11%
3) Cc1noc(-c2c(N)ncnc2N[C@@H](C)c2nc3cccc(Cl)c3c(=O)n2-c2ccccc2)n1 [Ex. 65]: 33.3%
